ASSAY_COMMENT: NCI Yeast Anticancer Drug Screen. Data for the rad50 strain (AID 155)
ASSAY_CONTEXT: S. cerevisiae rad50 strain growth inhibition; at 5.0 µM (retest, dose inferred, filed as 0.5)
About 79,000 compounds went through this panel and 15% of them were active in at least one assay; those are over-represented in the sample as a whole. The source made the active and inactive calls. No stated cut-off is given here; in the data, active means growth inhibition above about 70%; inactive means the rest.
// one of Y = active, N = inactive, no free text

Answered examples (10):
What is the recorded call for this compound in the test? O=C(CCl)Nc1ccc(C(=O)N/N=C/c2ccc(Cl)cc2)cc1
N

Please share the test call associated with C/C(N=NC(=S)N1CCCCCC1)=C1\C=CC=CN1O .
N

Please indicate how the test categorized Cc1cc(C)nc(NS(=O)(=O)c2ccc(Nc3c4ccccc4nc4c(C(=O)NCCCN(CCO)CCO)cccc34)cc2)n1 .
N

Kindly provide the recorded test outcome for the following compound: O=C(O)c1ccc(C(c2ccccc2)c2ccccc2)cc1
N

Any idea what this test logged for O=Cc1cc([N+](=O)[O-])ccc1O.[Eu] ?
N

Record lookup: outcome of this test for CCOc1ccc(NC(=O)C(=O)NO)cc1 ?
N

Can you look up the reported call for CCc1nc(N)nc(N)c1-c1ccc(Cl)c(N=[N+]=[N-])c1 for me?
N

Per the records of this test, what outcome belongs to CCC(C)(C)c1cc(O)c(C(C)(C)CC)cc1O ?
N

Assay outcome for NCC(=O)OCN1C(=O)C2C3C=CC(C2C1=O)C1C2C(=O)N(COC(=O)CN)C(=O)C2C31 (configuration not stated) : what was it?
N

Any idea what this test logged for CCCCCCCCCCCCCCCCOP(=O)(O)OP(=O)(O)OCC1OC(n2ccc(N)nc2=O)C(O)C1O (configuration not stated) ?
Y

New cases:
Can you look up the reported call for CN(C)CCNC(=O)Cc1cc(O)c2c(c1O)C(=O)c1ccccc1C2=O for me?
N

Look up the recorded call for Nc1ccc(Cc2ccc(Br)cc2)cc1 in this test.
N

Which outcome was entered for the compound COc1cc(/C=C/C(=O)NCCCCN=[N+]=[N-])ccc1OCc1ccccc1 in this test?
N

Assay result, entry O=C(NNc1ccnc2cc(Cl)ccc12)/C(=C/c1ccc2c(c1)OCO2)NC(=O)c1ccccc1 — outcome?
N

Tell me the recorded outcome of this test for Oc1ccc(Cc2ccccc2)cc1 .
N

# lookup: test call for COc1cccc2c1C(=O)c1c(O)c3c(c(O)c1C2=O)C[C@@](O)(C(C)=O)C[C@@H]3OC1CC(O)C(O)C(C)O1 (some centres not stated)
N

Outcome? CCCc1cc(=O)oc2c3c(c4c(c12)OC(C)(C)CC4)O[C@@H](C)[C@H](C)[C@H]3O
N

Which outcome was entered for the compound COc1cc(OC)c(OC)cc1/C=C\c1ccnc2ccccc12 in this test?
N

Name the outcome recorded for O=C(CC(=O)CC(O)(c1ccccc1)c1ccccc1)CC(=O)c1ccccc1 in the assay.
N

Field: outcome | Entry: C=C[C@]1(C)C=C2C(O)CC3C(C)(C)CCC[C@]3(CO)C2CC1 (some centres not stated)
N

// param item: Cc1ccc(NCCN(C)C)c2c(=O)c3cc(O)ccc3sc12 ; yields the recorded call
N

Assay result, entry Cc1ccccc1N=Nc1ccc(N=Nc2ccc(N)nc2N)c(C)c1 — outcome?
N
